# measurement-notes: pKa value was determined
# Type: physicochemical

# smiles-repr, pKa
rows = [
    ("CC(=O)O[C@H]1C[C@H](n2cc(C)c(=O)[nH]c2=O)O[C@@H]1COP(=O)(OC[C@H]1O[C@@H](n2cc(C)c(=O)[nH]c2=O)C[C@@H]1OC(C)=O)Oc1ccc(S(C)(=O)=O)cc1", 7.83),
    ("CSc1ccc(OP(=O)(OC[C@H]2O[C@@H](n3cc(C)c(=O)[nH]c3=O)C[C@@H]2OC(C)=O)OC[C@H]2O[C@@H](n3cc(C)c(=O)[nH]c3=O)C[C@@H]2OC(C)=O)cc1", 9.53),
    ("CC(=O)O[C@H]1C[C@H](n2cc(C)c(=O)[nH]c2=O)O[C@@H]1COP(=O)(OC[C@H]1O[C@@H](n2cc(C)c(=O)[nH]c2=O)C[C@@H]1OC(C)=O)Oc1cc(Cl)ccc1Cl", 7.5),
    ("CC(=O)O[C@H]1C[C@H](n2cc(C)c(=O)[nH]c2=O)O[C@@H]1COP(=O)(OC[C@H]1O[C@@H](n2cc(C)c(=O)[nH]c2=O)C[C@@H]1OC(C)=O)Oc1ccc([N+](=O)[O-])cc1", 7.16),
    ("CC(=O)O[C@H]1C[C@H](n2cc(C)c(=O)[nH]c2=O)O[C@@H]1COP(=O)(OC[C@H]1O[C@@H](n2cc(C)c(=O)[nH]c2=O)C[C@@H]1OC(C)=O)Oc1ccccc1Cl", 8.48),
    ("CC(=O)O[C@H]1C[C@H](n2cc(C)c(=O)[nH]c2=O)O[C@@H]1COP(=O)(OC[C@H]1O[C@@H](n2cc(C)c(=O)[nH]c2=O)C[C@@H]1OC(C)=O)Oc1ccc(Cl)cc1", 9.38),
]

Numbers sourced from ChEMBL document CHEMBL1124765.
